- Test system: KK-A^y mice
- protocol-notes: Effects on carbohydrate and lipid metabolism in KK-A^y mouse
- Assay type: in vivo
- condition-details: serum HDL-C level, oral, 4 days, dose 1 mg/kg
Rule: Percent change of each parameter compared to control group (%): HDL-C below 30% gives 1.0, anything at or above gives 0.0.

Is Percent change of each parameter compared to control group (%): HDL-C of Cc1oc(-c2ccccc2)nc1CC#CCCCOC(C)(C)C(=O)O [Example 38] strictly below 30%? 0.0

Please indicate whether the reported Percent change of each parameter compared to control group (%): HDL-C of Cc1ccc(-c2nc(Cc3cccc(CC4COC(C)(C(=O)O)OC4)c3)c(C)o2)cc1 (centres unmarked) [Example 81] is strictly below 30%. 0.0

Is it true that Percent change of each parameter compared to control group (%): HDL-C reported for CC1(C(=O)O)OCC(CCCCc2coc(-c3ccccc3)n2)CO1 (centres unmarked) [Example 14] is less than 30%? 1.0

In plain terms, does Cc1oc(-c2ccccc2)nc1C/C=C/CCCOC(C)(C)C(=O)O [Example 54] come in under 30% for Percent change of each parameter compared to control group (%): HDL-C? 1.0

Ref: patent US7030143B2
